Recorded values, source PubChem BioAssay AID1259407.

System: CCRIS mutagenicity, Ames/micronucleus/aberration tests
Assay: CCRIS mutagenicity studies
Conditions: Test System: AMES SALMONELLA TYPHIMURIUM; Strain/Indicator: TA97A; Metabolic Activation: NONE; Method: STANDARD PLATE
Activity calls are given as the source filed them. No rule for the calls is given here.
measured_property: mutagenic call

O=[N+]([O-])O = inactive; negative
CCCCOCC=O = inactive; negative
CCCCNC(=O)n1c(NC(=O)OC)nc2ccccc21 = inactive; negative
Nc1c2ccccc2nc2ccccc12 = active; positive
C=C(C)C(=O)OCCOC(=O)NCCC(C)CC(C)(C)CNC(=O)OCCOC(=O)C(=C)C (stereo not drawn) = inactive; negative
COCC(=O)O = inactive; negative
Cc1c(N(C)CS(=O)(=O)O)c(=O)n(-c2ccccc2)n1C = inactive; negative
CCN[C@@H](C)C[C@H](C)NCC.[Cl-].[Cl-].[Pt+2] = active; positive
COC1=CC(=O)c2c(ncc3c2[nH]c2ccncc23)C1=O = active; positive
O=S1OCC2C(CO1)C1(Cl)C(Cl)=C(Cl)C2(Cl)C1(Cl)Cl (stereo not drawn) = inactive; negative

Form field: mutagenic call recorded for Cc1cccc(C)c1C with CCRIS mutagenicity, Ames/micronucleus/aberration tests (enter value)
active; positive

Try this compound next: O=C(OCC1CCC2OC2C1)C1CCC2OC2C1 (stereo not drawn)
inactive; negative

And the next one, CC(C(=O)O)c1cccc(C(=O)c2ccccc2)c1 (stereo not drawn) ?
inactive; negative
